Entry source: ChEMBL document CHEMBL1128432

# assayed-target: 3-oxo-5-alpha-steroid 4-dehydrogenase 2 (Rattus norvegicus, UniProt P31214)
# Sequence (P31214 whole entry): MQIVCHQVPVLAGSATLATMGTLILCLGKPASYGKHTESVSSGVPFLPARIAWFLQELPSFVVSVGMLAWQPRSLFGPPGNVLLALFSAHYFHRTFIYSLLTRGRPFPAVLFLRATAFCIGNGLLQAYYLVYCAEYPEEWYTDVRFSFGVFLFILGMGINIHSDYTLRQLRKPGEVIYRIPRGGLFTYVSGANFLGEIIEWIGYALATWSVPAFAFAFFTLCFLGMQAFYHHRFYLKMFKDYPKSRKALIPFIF
assay-endpoint: Ki (nM)

P = C[C@]12CCC(=O)C=C1NCC1C2CC[C@@]2(C)C1CC[C@@H]2C(=O)Nc1cc(C(F)(F)F)ccc1C(F)(F)F (some centres not stated)
Q = C[C@]12CCC(=O)C=C1NCC1C2CC[C@@]2(C)C1CC[C@@H]2C(=O)NC1(c2ccc(Cl)cc2)CCCC1 (some centres not stated)
Ask: Pick one: P or Q . Which one has the lower reported Ki? # respond with the chosen item's label
Result: Q

---

# assayed-target: 3-oxo-5-alpha-steroid 4-dehydrogenase 1 (Homo sapiens, UniProt P18405)
# Sequence (P18405 whole entry): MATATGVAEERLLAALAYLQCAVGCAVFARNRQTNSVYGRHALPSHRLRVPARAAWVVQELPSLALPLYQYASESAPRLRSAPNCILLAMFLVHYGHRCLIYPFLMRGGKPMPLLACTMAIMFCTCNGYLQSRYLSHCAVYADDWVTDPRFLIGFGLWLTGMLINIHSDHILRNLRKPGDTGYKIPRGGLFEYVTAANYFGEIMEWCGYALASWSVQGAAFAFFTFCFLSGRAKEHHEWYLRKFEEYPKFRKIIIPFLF
# experimental-protocol: Inhibition of recombinant steroid 5-alpha-reductase type I
assay-endpoint: Ki (nM)

Example cases with answers are listed next.
1) C[C@]12CCC(=O)C=C1NCC1C2CC[C@@]2(C)C1CC[C@@H]2C(=O)Nc1cc(C(F)(F)F)ccc1C(F)(F)F (stereo not given in full) | 4
2) CC(C)(C)c1ccc(-c2ccc(C(C)(C)C)c(NC(=O)[C@H]3CCC4C5CNC6=CC(=O)CC[C@]6(C)C5CC[C@@]43C)c2)cc1 (stereo not given in full) | 1.3
3) CC1=C2NCC3C(CC[C@@]4(C)C3CC[C@@H]4C(=O)Nc3cc(C(F)(F)F)ccc3C(F)(F)F)[C@@]2(C)CCC1=O (stereo not given in full) | 0.2
4) CC(C)(C)c1ccc(Cl)cc1NC(=O)[C@H]1CCC2C3CNC4=CC(=O)CC[C@]4(C)C3CC[C@@]21C (stereo not given in full) | 7.5
5) CC(C)(C)c1cc(Br)ccc1NC(=O)[C@H]1CCC2C3CNC4=CC(=O)CC[C@]4(C)C3CC[C@@]21C (stereo not given in full) | 5.3

1 = C[C@]12CC[C@H]3[C@@H](CNC4=C(Cl)C(=O)CC[C@@]43C)[C@@H]1CC[C@@H]2C(=O)Nc1c(C(F)(F)F)cccc1C(F)(F)F (stereo in doubt; 25)
2 = CC(C)(C)c1ccc(Br)cc1NC(=O)[C@H]1CCC2C3CNC4=CC(=O)CC[C@]4(C)C3CC[C@@]21C (stereo not given in full)
3 = C[C@]12CCC(=O)C=C1NCC1C2CC[C@@]2(C)C1CC[C@@H]2C(=O)NC1(c2ccc(Cl)cc2Cl)CC1 (stereo not given in full)
4 = C[C@]12CCC(=O)C=C1NCC1C2CC[C@@]2(C)C1CC[C@@H]2C(=O)Nc1cc(C(F)(F)F)cc(C(F)(F)F)c1 (stereo not given in full)
Ask: Descending sort on Ki required. Returns: the labels listed in the requested order.
Result: 4, 3, 2, 1
(4: 26 nM, 3: 6.7 nM, 2: 4.2 nM, 1: 0.6 nM)

A = CC1=C2NCC3C(CC[C@@]4(C)C3CC[C@@H]4C(=O)Nc3cc(C(F)(F)F)ccc3C(C)(C)C)[C@@]2(C)CCC1=O (stereo not given in full)
B = CC(C)(C)c1ccc(C2(NC(=O)[C@H]3CCC4C5CNC6=CC(=O)CC[C@]6(C)C5CC[C@@]43C)CCCCCC2)cc1 (stereo not given in full)
Ask: Exercise: compare A and B ; which one has the greater Ki? Pick one; state its label.
Result: B
